# PROCEDURE_SUMMARY: inhibition of 3D7 malaria parasite growth – strain 3D7 (AID 2306);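 also: 0% = DMSO wells and 100% = chloroquine plus artemisinin control wells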
# REPORTED_CONDITIONS: P. falciparum 3D7 erythrocytic growth, LDH absorbance, 72 h; at 2 µM; hits give high values
MEASURED_QUANTITY: growth inhibition (%)
One number for each entry, in %.

The following compounds have reported results that may help.
[
  {
    "COMPOUND": "Cc1cc(C)cc(CC(=O)N2CCC(n3c(C)nc4ccc(C)cc43)CC2)c1",
    "UNIT_SYMBOL": "%",
    "growth inhibition": 100
  },
  {
    "COMPOUND": "Cc1nc(-c2nc(NCCc3c(C)noc3C)ncc2-c2ccsc2)sc1C",
    "UNIT_SYMBOL": "%",
    "growth inhibition": 87
  },
  {
    "COMPOUND": "CCNc1cc(C)nc(Nc2ccccc2)n1",
    "UNIT_SYMBOL": "%",
    "growth inhibition": 92
  }
]

Provide growth inhibition for all items below, preserving their order.
1. CN(C)S(=O)(=O)c1cc(-c2ccc3nccc(-c4cccc(S(N)(=O)=O)c4)c3c2)cnc1N
2. CC(C)(C)n1nnnc1C(c1cccnc1)N(Cc1ccccc1)Cc1ccc(Cl)cc1 (stereo not drawn)
3. COc1cc(F)c2nccc([C@@H](O)CN3CCC(NCc4ccc5c(n4)NC(=O)CS5)CC3)c2c1
4. O=S(=O)(NCCN1CCCC1)c1cccc(-c2cccc(CNCc3ccc(F)cc3)c2)c1
5. NCC1CCCN1Cc1ccc(-c2ccc(-c3nc4ccc(F)cc4[nH]3)cc2)cc1 (stereo not drawn)
6. N#Cc1ccc(CNCCCCCCNCc2ccc(C#N)c3ccccc23)c2ccccc12
7. COc1cc(NC(=O)/C=C/c2cccc3ccoc23)ccc1OCCN(C(C)C)C(C)C

Solution:
100
96
103
99
102
102
90

Look up growth inhibition for the entries below, preserving their order.
1. N#Cc1ccc(N2CCN(C(=O)c3cccc(-c4noc(C(F)(F)F)n4)c3)CC2)nc1
2. Cc1ccc(O)c(-c2cc(C(=O)Nc3ccc(S(=O)(=O)N4CCCCCC4)cc3)[nH]n2)c1
3. COc1ccc(Cc2nc3c(n2C(C)=O)SC(c2ccc(Cl)c(Cl)c2)=NN3C(C)=O)cc1

Solution:
84
100
94

###

# ASSAY_TARGET: L-lactate dehydrogenase (Plasmodium falciparum (isolate CDC / Honduras)) (UniProt Q27743)
# Sequence (Q27743 whole entry, looked up): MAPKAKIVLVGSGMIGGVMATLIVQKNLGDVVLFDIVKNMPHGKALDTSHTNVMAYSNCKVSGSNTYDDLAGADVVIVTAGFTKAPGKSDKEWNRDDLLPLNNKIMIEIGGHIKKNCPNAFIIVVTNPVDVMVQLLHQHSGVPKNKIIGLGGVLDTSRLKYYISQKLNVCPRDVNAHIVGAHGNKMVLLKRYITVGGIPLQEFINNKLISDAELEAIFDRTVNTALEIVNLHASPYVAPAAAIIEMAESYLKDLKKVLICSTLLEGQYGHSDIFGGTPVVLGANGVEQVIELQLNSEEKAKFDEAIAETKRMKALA
# PROCEDURE_SUMMARY: PfLDH activity inhibition – cell lysate, 3D7 strain, counter-screen for P. falciparum growth inhibition project (AID 2304);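 also: 0% = vehicle and 100% = reference inhibitor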
# REPORTED_CONDITIONS: P. falciparum 3D7 crude extract, LDH APAD/NBT absorbance; at 2 µM; hits give high values
Calls of active or inactive are those of the source. The rule behind the calls is not given here.
MEASURED_QUANTITY: inhibition

[
  {
    "COMPOUND": "COc1ccc(CNC(=O)C2Cc3ccccc3CN2Cc2ccc3ccccc3c2)cc1 (stereo unspecified)",
    "ASSAY_TARGET": "L-lactate dehydrogenase (Plasmodium falciparum (isolate CDC / Honduras)) (UniProt Q27743)",
    "inhibition": "-8% (inactive)"
  },
  {
    "COMPOUND": "CC(C)[C@H](NCC(=O)c1ccccc1)C(=O)O",
    "ASSAY_TARGET": "L-lactate dehydrogenase (Plasmodium falciparum (isolate CDC / Honduras)) (UniProt Q27743)",
    "inhibition": "-3% (inactive)"
  },
  {
    "COMPOUND": "CCC(CC)n1c(COC)cc2c3c(N)nc(N)nc3ccc21",
    "ASSAY_TARGET": "L-lactate dehydrogenase (Plasmodium falciparum (isolate CDC / Honduras)) (UniProt Q27743)",
    "inhibition": "-4% (inactive)"
  },
  {
    "COMPOUND": "Cc1cc(NC(=O)NCCN2CCC(NC(=O)c3ccc(Cl)cc3)CC2)c2ccccc2n1",
    "ASSAY_TARGET": "L-lactate dehydrogenase (Plasmodium falciparum (isolate CDC / Honduras)) (UniProt Q27743)",
    "inhibition": "-2% (inactive)"
  },
  {
    "COMPOUND": "O=C(Nc1cc(Cl)cc(Cl)c1)Nc1ccccc1C(=O)NC1CCCCC1",
    "ASSAY_TARGET": "L-lactate dehydrogenase (Plasmodium falciparum (isolate CDC / Honduras)) (UniProt Q27743)",
    "inhibition": "4% (inactive)"
  }
]

I would be grateful if you could provide inhibition for each of the following entries.
1. Cc1cc(N[C@@H](Cc2ccccc2)C(=O)NCCOc2ccccc2)nc(Nc2ccccc2)n1
2. O=C(NCc1ccc(C(=O)N2CCC(N3CCCCC3)CC2)cc1)c1cc(-c2cccc(C(F)(F)F)c2)ccc1O
3. CCCc1cc(Cc2cnc(N)nc2N)cc(CCC)c1OCCCCC(=O)O
4. O=C(NCC1CC1)C1CCN(C(c2ccccc2)c2ccc(Cl)c(Cl)c2)CC1 (stereo unspecified)
5. O=C(Nc1ccc(OC2CCN(Cc3ccccc3)CC2)c(Cl)c1)c1ccc(F)cc1
6. CSc1ccc(CN2CCC(CNC(=O)c3cc(-c4ccccc4F)cs3)C2)cc1 (stereo unspecified)
7. COc1ccc(-c2ccc(NC(=O)c3cccc(F)c3)cc2)cc1CNC(C)C
8. Cc1ccc(NC(=O)c2ccc(N3CCC(c4ccccc4C)CC3)nc2)cc1

Solution:
1. -2% (inactive)
2. 1% (inactive)
3. -2% (inactive)
4. -1% (inactive)
5. 9% (inactive)
6. 2% (inactive)
7. -2% (inactive)
8. 3% (inactive)

Would you mind giving inhibition for every compound in the list below?
1. CN1CCN(CC2(Nc3nccc(NCCc4cn(C)c5ccccc45)n3)CCCCC2)CC1
2. O=C(Nc1cccc(CN2CCCN(Cc3cccc(O)c3)CC2)c1)c1ccc(-c2ccccc2)cc1
3. O=C(Nc1ccnc2ccccc12)NC1CCN(Cc2ccccc2)CC1

Solution:
2% (inactive)
3% (inactive)
5% (inactive)

###

# PROCEDURE_SUMMARY: human hepatoma cell viability loss – ATP luminescence, cytotoxicity control for P. falciparum antimalarial project, primary screen (AID 2303);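 also: 0% = DMSO wells and 100% = digitonin-killed cells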
# REPORTED_CONDITIONS: HepG2 viability, 24-48 h, at 10 µM, hits give high values
Please provide measured inhibition for the entries that follow.
Answers are plain numbers, in %.

Consider the worked cases shown below.
[
  {
    "MOLECULE": "Cc1ccnc(NC(c2cccc(OCc3ccccc3)c2)c2ccc3cccnc3c2O)c1 (stereo not given)",
    "inhibition / %": 26
  },
  {
    "MOLECULE": "O=C(CSc1nccn1Cc1ccco1)Nc1cc(C(F)(F)F)ccc1Cl",
    "inhibition / %": 9
  },
  {
    "MOLECULE": "Clc1ccc2c(NN=Cc3ccco3)ccnc2c1",
    "inhibition / %": 3
  },
  {
    "MOLECULE": "CNS(=O)(=O)c1ccc(NC(=O)c2cc(-c3cccnc3)nc3ccc(Br)cc23)cc1",
    "inhibition / %": 9
  }
]

Problem: Supply recorded inhibition for `Cc1cccc2[nH]c(-c3ccc(-c4cccc(CNCc5ccc(S(C)(=O)=O)cc5)c4)s3)nc12` here.
Solution: 31

###

# PROCEDURE_SUMMARY: inhibition of 3D7 malaria parasite growth – strain 3D7 (AID 2306);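 also: 0% = DMSO wells and 100% = chloroquine plus artemisinin control wells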
# REPORTED_CONDITIONS: P. falciparum 3D7 erythrocytic growth, LDH absorbance, 72 h; at 2 µM; hits give high values
MEASURED_QUANTITY: growth inhibition (%)
Give bare numbers, in %.

A selection of reference data follows.
[
  {
    "COMPOUND": "CN(Cc1ccccc1)C1CCN(c2cc(NC(=O)c3cccc(F)c3)ccn2)CC1",
    "UNIT_SYMBOL": "%",
    "growth inhibition": 93
  },
  {
    "COMPOUND": "CN(C)CCNc1ncnc2c1[nH]c1ccc(Cl)cc12",
    "UNIT_SYMBOL": "%",
    "growth inhibition": 100
  },
  {
    "COMPOUND": "Cc1cnc(C(=O)Nc2cccc(-c3ccc(-c4nc5ccc(C(F)(F)F)cc5[nH]4)s3)c2)cn1",
    "UNIT_SYMBOL": "%",
    "growth inhibition": 86
  },
  {
    "COMPOUND": "COCCNCc1nc(-c2ccc3c(Nc4ccc(F)c(O)c4)ccnc3c2)cs1",
    "UNIT_SYMBOL": "%",
    "growth inhibition": 101
  },
  {
    "COMPOUND": "CCCCCCNC(=O)C1Cc2c([nH]c3ccc(F)cc23)C2(CCN(Cc3ccccc3)CC2)N1 (stereo unspecified)",
    "UNIT_SYMBOL": "%",
    "growth inhibition": 97
  }
]

Kindly give each listed record's growth inhibition.
1. Cc1ccc(NC(=O)Nc2ccccc2)cc1-c1ccc(C(=O)Nc2ccncc2)cc1
2. O=C(NCc1ccc(F)cc1)c1cnc(N2CCN(c3ccncc3)CC2)c(Cl)c1

Solution:
[99, 98]

For each listed entry, give its growth inhibition.
1. COc1ccc2c(ccc3c2ncc2c(=O)n(-c4ccccc4)[nH]c23)c1
2. FC(F)(F)c1cccc(CCNc2nccc(NCc3ccc(Cl)cc3Cl)n2)c1
3. Cc1ccc(CCOCCCCCNCC(O)c2cc(Cl)c(N)c(Cl)c2)cc1 (stereo unspecified)
4. Cc1cccc(NC(=O)c2ccc(C(=O)NC3CCN(CC4CCCCC4)C3)cc2)c1 (stereo unspecified)

Solution:
1: 95; 2: 97; 3: 99; 4: 88

Below are some compounds; for each one, tell me its growth inhibition.
1. CC(=O)N[C@H](C(=O)Nc1cccc(-c2ccc(-c3nc4c(C)cccc4[nH]3)s2)c1)C(C)C
2. Cc1cc(N(C)C2CCN(CC3CCCCC3)C2)nc(Nc2ccc(Br)cc2)n1 (stereo unspecified)

Solution:
[93, 98]

Please give growth inhibition for each item listed below.
1. CC(C)CNC(=O)c1cncc(-c2ccc(CN(C)C3CCN(C)CC3)cc2)c1
2. Oc1ccc2nc(N3CCNCC3)nc(NCCCc3ccccc3)c2c1
3. CC(C)(C)c1ccc(-c2ccccc2CNC(=O)c2cccc(O)c2)cc1
4. Cc1cccc2[nH]c(-c3cccc(-c4ccc(NC(=O)Cc5ccccn5)cc4)c3)nc12
5. CCCCC(CC)CN1C(=O)C(c2ccccc2)(c2ccccc2)N=C1N (stereo unspecified)
6. O=C(Nc1ccc(-c2ccc(CN3CCNCC3)cc2)cc1)c1cccc(Cl)c1

Solution:
[101, 102, 99, 94, 94, 91]

Reference source for all entries: PubChem BioAssay
